System: MDA-MB-435
Assay: NCI tumour cell line growth inhibition, 48 h
The source made the active and inactive calls. Cut-off read from the data, not from the text of the source: active = GI50 up to about 1.1 µM and inactive = higher.
Experimental Readout: GI50

>  <Compound>
Cc1nc2sc3ccccc3n2c(=O)c1/N=N/c1ccc(Cl)cc1

>  <Experimental Readout>
GI50

>  <Test Result>
> 100 µM (inactive)

$$$$
>  <Compound>
CC(C)Oc1cccc(N2C(CCc3c[nH]c4ccc(Br)cc34)=NS(=O)(=O)c3cnccc32)c1

>  <Experimental Readout>
GI50

>  <Test Result>
46.2 µM (inactive)

$$$$
>  <Compound>
Cc1cccc(C(O)c2cccnc2)c1O (centres undefined)

>  <Experimental Readout>
GI50

>  <Test Result>
> 100 µM (inactive)

$$$$

Then there is this compound:
Just so you know, measured GI50 for C=C(C)[C@H]1CC[C@@]23O[C@@H]2[C@@H](C[C@@]2(C)CC(=O)[C@H](CC(=O)C1)O2)OC(=O)[C@@]12CC[C@H](C(=C)C)CC(=O)C[C@H]4O[C@](C)(CC4=O)C[C@@H](OC3=O)[C@@H]1O2 [SINGARDIN] came out at > 100 µM (inactive)

----------
System: RPMI-8226
Assay: NCI tumour cell line growth inhibition, 48 h
Calls of active or inactive are those of the source. No stated cut-off is given here; in the data, active = GI50 up to about 1.1 µM and inactive = higher.
Respond using exactly one of the listed classes: y for active, n for inactive

Here's what some known entries look like.
>  <Compound>
CCOC(CN(C)C(=O)Nc1cccc2ccccc12)OCC

>  <Target Or Test System>
RPMI-8226

>  <Label Value>
n

$$$$
>  <Compound>
O=C(O)c1cc(=O)c2cc(C(=O)c3cccs3)c(Cl)c(Cl)c2o1

>  <Target Or Test System>
RPMI-8226

>  <Label Value>
n

$$$$
>  <Compound>
O=C(c1ccccc1)C1C(c2ccccc2)N1S(=O)(=O)c1ccccc1 (stereo not given)

>  <Target Or Test System>
RPMI-8226

>  <Label Value>
n

$$$$
>  <Compound>
COc1ccc(-c2c3ccccc3c(-c3ccc(OCCBr)cc3)c3ccccc23)cc1

>  <Target Or Test System>
RPMI-8226

>  <Label Value>
n

$$$$
>  <Compound>
COc1ccc(-c2nc(-c3cnccn3)n(C/C=C/c3ccccc3)n2)cc1

>  <Target Or Test System>
RPMI-8226

>  <Label Value>
n

$$$$
>  <Compound>
CC1(CCCO)CCCCCC(C)(CCCO)C1=O (stereo not given)

>  <Target Or Test System>
RPMI-8226

>  <Label Value>
n

$$$$

Q: Tell me the recorded outcome of this test for Clc1ccccc1/C=C/c1cscn1 .
Result: n

Q: Tell me the recorded outcome of this test for Cc1c2c(OCCCCN3CCN(c4ncccn4)CC3)nn(C)c(=O)c2c(C)n1-c1ccccc1 .
Result: n

----------
Test system: CCRF-CEM
Assay: NCI tumour cell line growth inhibition, 48 h
Active and inactive are the calls of the source. Cut-off read from the data, not from the text of the source: active = GI50 up to about 1.1 µM and inactive = higher.
Experimental Readout: GI50

Examples with their reported GI50 follow.
>  <Molecule>
COc1ccc(OC)c2c1C(=O)C1CC1(Br)C2=O (centres undefined)

>  <GI50>
> 100 µM (inactive)

$$$$
>  <Molecule>
CCOC(=O)C1Cc2c(cc3c4c(cccc24)N(C(C)=O)C3)N(C)C1 (centres undefined)

>  <GI50>
0.867 µM (active)

$$$$

Just so you know, measured GI50 for O=c1n(CCCN2CCOCC2)nc2n1-c1ccc3ccccc3c1SC2 came out at 45.5 µM (inactive)

Just so you know, measured GI50 for O=C1[C@@H]2C(c3c(Cl)cccc3Cl)=NO[C@@H]2C(=O)N1c1ccc(Cc2ccc(N3C(=O)[C@H]4C(c5c(Cl)cccc5Cl)=NO[C@H]4C3=O)cc2)cc1 came out at > 100 µM (inactive)

Just so you know, measured GI50 for CC(=O)c1c(C)n(C)c2c1nnc1ccccc12 came out at 54.2 µM (inactive)

Just so you know, measured GI50 for O=C1/C(=C/c2ccccc2O)N=C(c2ccccc2)N1C1Nc2cc3c(cc2S1)NC(N1C(=O)/C(=C/c2ccccc2O)N=C1c1ccccc1)S3 (centres undefined) came out at 39.7 µM (inactive)

Just so you know, measured GI50 for COc1ccccc1NC(=O)C1=C(C)NC(C)=C(C(=O)Nc2ccccc2OC)C1/C=C/c1ccccc1 came out at 49.1 µM (inactive)

Just so you know, measured GI50 for O/N=C1\CCc2nonc2\C1=N/Nc1ccccc1 came out at > 100 µM (inactive)

Just so you know, measured GI50 for O=c1c2ccccc2c(=O)n2n1-c1cccc(c1)CSSCc1cccc-2c1 came out at > 10 µM (inactive)

----------
Tested on: NCI-H23
Test: NCI tumour cell line growth inhibition, 48 h
The source made the active and inactive calls. Cut-off read from the data, not from the text of the source: active = GI50 up to about 1.1 µM and inactive = higher.
Respond using exactly one of the listed classes: class 1 for active, class 0 for inactive

Here's what some known entries look like.
>  <Molecule>
CC1C2CC(CC23OCC(CCl)O3)C1(C)C (centres undefined)

>  <Label Value>
class 0

$$$$
>  <Molecule>
COc1cccc(N2C(=O)[C@H]3CC(C)c4c([nH]c5ccccc45)[C@H]3C2=O)c1 (some centres undefined)

>  <Label Value>
class 0

$$$$
>  <Molecule>
N#Cc1c(-c2ccccc2)c(C#N)c(=S)n(C2OC(CO)C(O)C(O)C2O)c1N (centres undefined)

>  <Label Value>
class 0

$$$$
>  <Molecule>
Cn1c2n/c(=N\c3ccc(Cl)cc3)[n+]3ccc4ccccc4c3c-2c([O-])n1-c1ccccc1

>  <Label Value>
class 0

$$$$
>  <Molecule>
NC(=O)c1nnsc1NN=O

>  <Label Value>
class 0

$$$$

Q: Tell me the recorded outcome of this test for NCc1ccc(O)c(O)c1 .
Result: class 0

Q: Tell me the recorded outcome of this test for COc1cc(C2c3cc4c(cc3[C@@H](N(C)C)[C@H]3COC(=O)C23)OCO4)cc(OC)c1O (some centres undefined) .
Result: class 0

Q: Tell me the recorded outcome of this test for O=C(CC(=O)Nc1ccccc1)NNC(Sc1ccccc1)c1cc(/N=N/c2ccc(Br)cc2)ccc1O (centres undefined) .
Result: class 0

Q: Tell me the recorded outcome of this test for Cc1cc(O)c2c(c1)C[C@@H](O)C1=C2C(=O)c2c(O)ccc(OC3CC(O)C(OC4CC(OC5CCC(OC6CC(O)C(OC7CC(OC8CCC(O)C(C)O8)C(O)C(C)O7)C(C)O6)C(C)O5)C(O)C(C)O4)C(C)O3)c2C1=O (some centres undefined) .
Result: class 1

----------
Test system: HCT-15
# GI50 listing for each entry below

Item: COc1cc(/N=N\c2ccc(OC)c(S(=O)(=O)O)c2)c(C)cc1/N=N\c1ccc(/C=C/c2ccc(/N=[N+](/[O-])c3ccc(/C=C/c4ccc(/N=N/c5cc(C)c(/N=N\c6ccc(OC)c(S(=O)(=O)O)c6)cc5OC)cc4S(=O)(=O)O)c(S(=O)(=O)O)c3)cc2S(=O)(=O)O)c(S(=O)(=O)O)c1 | System: HCT-15 | GI50: > 100 µM

Item: COc1cc2c3c(c4cc(OC)c(OC)cc4c2cc1OC)[C@H](O)[C@@H]1CCCN1C3 | System: HCT-15 | GI50: < 0.0239 µM

Item: N#Cc1nc(/C=C/c2nc(C#N)c(N)o2)oc1N | System: HCT-15 | GI50: > 10 µM

----------
# GI50 listing for each entry below
Test system: Malme-3M
Test: NCI tumour cell line growth inhibition, 48 h
Activity calls are given as the source filed them. Cut-off read from the data, not from the text of the source: active = GI50 up to about 1.1 µM and inactive = higher.

Examples with their reported GI50 follow.
>  <Compound>
NNC(=O)C(=O)N/N=C(\CCC(=O)Nc1ccc(Cl)cc1)Cc1nc2ccccc2s1

>  <Test Result>
44.7 µM (inactive)

$$$$
>  <Compound>
C[C@]12CCCC(=O)C1(O)C[C@H](C(=O)O)CC2 (stereo partly specified)

>  <Test Result>
> 100 µM (inactive)

$$$$
>  <Compound>
Cn1c2c(c3ccccc31)CC(=S)N1CCCC(CC2O)C1 (stereo unspecified)

>  <Test Result>
> 100 µM (inactive)

$$$$
>  <Compound>
CCOC(=O)Cc1ccc(Nc2nc3cc(F)c(F)cc3nc2C(=O)OCC)cc1

>  <Test Result>
> 100 µM (inactive)

$$$$
>  <Compound>
CCCC(=O)OC(OC(=O)CCC)c1ccc([N+](=O)[O-])o1

>  <Test Result>
19.2 µM (inactive)

$$$$

Item: CCOC(=O)C(OP(=O)(OCC)OCC)C(F)(F)F (stereo unspecified) | System: Malme-3M | GI50: > 100 µM (inactive)

----------
Tested on: M19-MEL
Experiment: NCI tumour cell line growth inhibition, 48 h
Calls of active or inactive are those of the source. Cut-off read from the data, not from the text of the source: active = GI50 up to about 1.1 µM and inactive = higher.
# GI50 listing for each entry below

Examples with their reported GI50 follow.
>  <Compound>
OCCC1(O)CCC(O)CC1 (stereo not drawn)

>  <Test Result>
> 100 µM (inactive)

$$$$
>  <Compound>
COc1ccccc1NC(=O)C1=C(C)NC(C)=C(C(=O)Nc2ccccc2OC)C1/C=C/c1ccccc1

>  <Test Result>
> 100 µM (inactive)

$$$$
>  <Compound>
Cc1ccccc1-n1c(C)nc2c1C(=O)c1ccccc1C2=O

>  <Test Result>
22.8 µM (inactive)

$$$$

Just so you know, measured GI50 for COc1cc(C2c3cc4c(cc3[C@@H](Nc3ccc([N+](=O)[O-])cc3)C3COC(=O)[C@H]23)OCO4)cc(OC)c1O (stereo partly drawn) came out at 3.06 µM (inactive)

Just so you know, measured GI50 for CC(C)c1cccc(C(C)C)c1NC(=O)C(=O)Cc1nc2ccc([N+](=O)[O-])cc2nc1O came out at 80.9 µM (inactive)

Just so you know, measured GI50 for O=c1c2ccccc2nc(-c2ccccc2)n1NC1OC(CO)C(O)C(O)C1O (stereo not drawn) came out at > 100 µM (inactive)

Just so you know, measured GI50 for COc1cc2c(c(OC)c1OC)-c1cccc(=O)cc1C(NC(C)=O)CC2 (stereo not drawn) came out at 0.605 µM (active)

Just so you know, measured GI50 for CCCCCCCCCc1cc(=O)c2ccc(OCc3ccccc3)cc2o1 came out at 69.7 µM (inactive)

Just so you know, measured GI50 for CCOC(=O)c1cc2c(OCc3ccccc3)c(OC)cc3c2c(n1)N(c1ccc(OC)cc1)C(C)C3 (stereo not drawn) came out at > 50 µM (inactive)
